- Method: NCI Yeast Anticancer Drug Screen. Data for the cln2 rad14 strain (AID 165);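 also: 0% = growth equal to vehicle treated cultures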
- Condition set: S. cerevisiae cln2 rad14 strain, at 50.0 µM, stronger effect = higher value
Compounds without any hit were thinned out: in the full panel of roughly 79,000, 15% have a hit.
Quantity name: growth inhibition (%)
Kindly answer with a numeric value in %, unit omitted.

# get_value(readout='growth inhibition', item= COc1cccc(C(=O)CCN(C)C)c1 )
12.1

# get_value(readout='growth inhibition', item= COC(=O)C1=C(c2ccccc2)c2ccc3ccccc3c2C1c1ccccc1 (centres undefined) )
12.4

# get_value(readout='growth inhibition', item= COc1cc2c(cc1OC)C(c1ccccc1CCCCl)=NCC2 )
10.8

# get_value(readout='growth inhibition', item= C/C(=N/NS(=O)(=O)c1ccc(N)cc1)c1ccccc1 )
15.6

# get_value(readout='growth inhibition', item= CCCCOS(=O)(=O)c1ccc([N+](C)(C)C)cc1 )
12.2

# get_value(readout='growth inhibition', item= NC(=O)CCN(CCC(N)=O)CCC(N)=O )
-24.9

# get_value(readout='growth inhibition', item= CC(C)=CC(=O)OC1C2C(C)=CC(O)C(O)C2(C)C2C3(O)OCC24C(CC(=O)OC14)C(C)C3O (centres undefined) )
48.4

# get_value(readout='growth inhibition', item= CC(=O)Nn1cnc(C(=N)C#N)c1N )
11.8

# get_value(readout='growth inhibition', item= O=c1c2n(c(=O)c3n1CCC=3)CCC=2 )
-25.1

# get_value(readout='growth inhibition', item= C/C=C(\C(=C\C)c1ccc(OC(=O)c2ccccc2)c(C2CCCCC2)c1)c1ccc(O)c(C2CCCCC2)c1 )
30.4

# get_value(readout='growth inhibition', item= CC(=O)CC(=O)c1cc(C(C)=O)c(O)c(C(C)=O)c1 )
-3.3

# get_value(readout='growth inhibition', item= COC(=O)CC1(C(=O)OC)Oc2ccc(Br)cc2C(=O)N1c1ccc(Br)cc1Cl (centres undefined) )
15.2

# get_value(readout='growth inhibition', item= CC(=O)Oc1c(Br)cc(C(=O)c2ccccc2C(=O)c2cc(Br)c(OC(C)=O)c(Br)c2)cc1Br )
-16.3

# get_value(readout='growth inhibition', item= Cc1ccc(O)c2occ(C)c12 )
36.9

# get_value(readout='growth inhibition', item= COc1ccc(C(O)c2ccc(OC)cc2)cc1 )
10.1

# get_value(readout='growth inhibition', item= CNC(CCCC1CCCCC1)C(=O)O (centres undefined) )
11.4

# get_value(readout='growth inhibition', item= COc1cc(C2C(Cl)C(=O)N2NC(=O)c2ccc(N)cc2)cc(Br)c1O (centres undefined) )
-38

# get_value(readout='growth inhibition', item= NNC(=O)CCC(=O)Nc1ccc(Cl)cc1Cl )
26.9

# get_value(readout='growth inhibition', item= O=C(Nc1ccc(S(=O)(=O)NC2CCCCC2)cc1)Oc1ccc([N+](=O)[O-])cc1 )
10.8

# get_value(readout='growth inhibition', item= NC(=S)c1ccc[n+](Cc2c(Cl)cccc2Cl)c1 )
-13.3

# get_value(readout='growth inhibition', item= c1ccc(C(c2ccccc2)c2cc(-c3cc(C(c4ccccc4)c4ccccc4)[nH]n3)n[nH]2)cc1 )
-28.6

# get_value(readout='growth inhibition', item= CC1(C)C(C#N)C1C1=C(N2CCOCC2)[C@]2(C)C(OC(=O)c3ccccc3)CC[C@@H]2C1 (some centres undefined) )
7.7

# get_value(readout='growth inhibition', item= CCCCCCOC(=O)/C=C1/OC(=O)c2ccccc21 )
-60.5

# get_value(readout='growth inhibition', item= CC/C(=N/NC(N)=O)C1C=COC=C1 )
-6.8

* * *

- Method: NCI Yeast Anticancer Drug Screen. Data for the cln2 rad14 strain (AID 165);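 also: 0% = growth equal to vehicle treated cultures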
- Condition set: S. cerevisiae cln2 rad14 strain, at 50.0 µM, stronger effect = higher value
About 79,000 compounds went through this panel and 15% of them were active in at least one assay; those are over-represented in the sample as a whole. Calls of active or inactive are those of the source. Rule as the data show it: active = growth inhibition above about 70%; inactive = the rest.
Record form. Attribute: growth inhibition. Fill in for each entry.

# get_value(readout='growth inhibition', item= CC(=O)NC(CCCCN(Cc1ccccc1)C(=O)N(C)N=O)C(=O)NCc1ccccc1 (configuration not stated) )
-0.15% (inactive)

# get_value(readout='growth inhibition', item= Cc1c(-c2ccccc2)c(-c2ccccc2)c(C)c(-c2ccc3c(c2)CCCC3)c1-c1ccccc1 )
1.75% (inactive)

# get_value(readout='growth inhibition', item= Cc1cc[n+](CC(=O)CC(O)(C(F)(F)F)C(F)(F)F)cc1 )
-4.1% (inactive)

# get_value(readout='growth inhibition', item= O=C1CCC(N2C(=O)C3CCCCC3C2=O)C(=O)N1 (configuration not stated) )
1.7% (inactive)

# get_value(readout='growth inhibition', item= COc1ccc(OC)c(NC(=O)Oc2cc(C)c(Cl)c(C)c2)c1 )
8.25% (inactive)

# get_value(readout='growth inhibition', item= CC(=O)Nc1ccc(-c2cn3ccccc3n2)cc1 )
25.6% (inactive)

# get_value(readout='growth inhibition', item= Cc1cc(=O)c2cc3ccc4cccc5ccc(c2[nH]1)c3c45 )
-24.3% (inactive)

# get_value(readout='growth inhibition', item= CCCC(O)C(C)N (configuration not stated) )
-0.2% (inactive)

# get_value(readout='growth inhibition', item= N#Cc1nc(-c2ccco2)oc1N )
3% (inactive)

# get_value(readout='growth inhibition', item= O=C(/C=C/c1ccccc1)SCc1ccccc1 )
-2.1% (inactive)

# get_value(readout='growth inhibition', item= CC(=O)Nc1ccc(/C=C2\C(=O)Nc3ccccc32)cc1 )
-11.8% (inactive)

# get_value(readout='growth inhibition', item= NC(=O)C(C(N)=O)c1ccnc2ccccc12 )
-16.8% (inactive)

* * *

- Method: NCI Yeast Anticancer Drug Screen. Data for the sgs1 mgt1 strain (AID 161);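 also: 0% = growth of cultures given vehicle only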
- Condition set: S. cerevisiae sgs1 mgt1 strain, at 50.0 µM, stronger effect = higher value
This is part of a sample that, as a whole, favours compounds with a hit. Of some 79,000 tested, about 15% had one in any assay.
Quantity name: growth inhibition (%)
Kindly answer with a numeric value in %, unit omitted.

# get_value(readout='growth inhibition', item= COc1c(NC(=O)c2c(Br)c(Br)c(Br)c(Br)c2C(=O)O)cccc1[N+](=O)[O-] )
7.65

# get_value(readout='growth inhibition', item= ClCCc1ccccc1CC1=NCCc2ccccc21 )
-23.7

# get_value(readout='growth inhibition', item= CCOc1ccccc1N=Nc1c(C)nc(N)nc1OCC )
6.55

# get_value(readout='growth inhibition', item= CCCOC(=O)c1cc(C(=CCC[C@H]2CC[C@@]3(C)[C@@H](CC[C@@H]4[C@@H]3CC[C@]3(C)[C@@H](C(C)CCCC(C)C)CC[C@@H]43)C2)c2cc(Cl)c(O)c(C(=O)OCCC)c2)cc(Cl)c1O (some centres not stated) )
-0.55

# get_value(readout='growth inhibition', item= CCCCCCCCCCCCCCCC1CCCC2CCCCC12 (configuration not stated) )
9.5

# get_value(readout='growth inhibition', item= COc1cc(C2NC(=O)C(C)(C)O2)cc(OC)c1OC (configuration not stated) )
-8.75

# get_value(readout='growth inhibition', item= CC(N)/C(N)=N/O (configuration not stated) )
-0.95

# get_value(readout='growth inhibition', item= CN1C(=O)C(=O)N2c3ccc(Cl)cc3C3(c4ccccc4)N=CC12O3 (configuration not stated) )
6

# get_value(readout='growth inhibition', item= CC(=O)OC1CC(OC(C)=O)C(OC(C)=O)CC1OC(C)=O (configuration not stated) )
-9.45

# get_value(readout='growth inhibition', item= CCOC(=O)NN(C/C(Cl)=C/Cl)C/C(Cl)=C/Cl )
0.4

# get_value(readout='growth inhibition', item= COc1ccc(NC(=O)Nc2cc(Cl)ccc2C)c(Cl)c1 )
29.8

# get_value(readout='growth inhibition', item= CCOc1ccc(NC(=O)c2ccccc2O)cc1 )
17.7

* * *

- Method: NCI Yeast Anticancer Drug Screen. Data for the sgs1 mgt1 strain (AID 161);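 also: 0% = growth of cultures given vehicle only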
- Condition set: S. cerevisiae sgs1 mgt1 strain, at 50.0 µM
This is part of a sample that, as a whole, favours compounds with a hit. Of some 79,000 tested, about 15% had one in any assay. Active and inactive are the calls of the source. Rule as the data show it: active = growth inhibition above about 70%; inactive = the rest.
Pick from TRUE = active, FALSE = inactive when you respond.

Give the logged outcome of this assay for the following compound: Clc1ccc(-c2nnc3n2NC(c2ccccc2)S3)c(Cl)c1 (stereo not given)
FALSE

Give the logged outcome of this assay for the following compound: CC1CCC(O)C(C(O)CC2CC(=O)NC(=O)C2)C1 (stereo not given)
FALSE

Give the logged outcome of this assay for the following compound: Cn1c(=O)c2ccccc2c2cc([N+](=O)[O-])ccc21
FALSE

Give the logged outcome of this assay for the following compound: CCCCCCCC/C=C\CCCCCCCC(N)=O
FALSE

Give the logged outcome of this assay for the following compound: CC(C)CN(CC(C)C)C(=O)C1CCCC[C@@H]1C(=O)O (stereo not given in full)
FALSE

Give the logged outcome of this assay for the following compound: NC1=NCCN1
FALSE

Give the logged outcome of this assay for the following compound: CCCC[n+]1cccc(C(N)=O)c1
FALSE

Give the logged outcome of this assay for the following compound: Cc1cc(C(=O)O)cc(C)c1N(C)Cc1cnc2nc(N)nc(N)c2n1
FALSE

Give the logged outcome of this assay for the following compound: COc1ccc(C(=O)c2ccccc2C(=O)c2ccc(OC)cc2)cc1
FALSE

Give the logged outcome of this assay for the following compound: CC1C=CC(C)c2c(-c3ccccc3)oc(-c3ccccc3)c21 (stereo not given)
FALSE

Give the logged outcome of this assay for the following compound: CN1CCCCC1=O
FALSE

Give the logged outcome of this assay for the following compound: CN(C)C(=O)C1(C)CC2CCC1C2 (stereo not given)
FALSE

Give the logged outcome of this assay for the following compound: C/C(N=NC(=S)N1CCCC1)=C1\C=CC=CN1O
FALSE

Give the logged outcome of this assay for the following compound: c1ccc2oc(-c3ccc4c(c3)OCO4)nc2c1
FALSE

Give the logged outcome of this assay for the following compound: CCC(c1ccc(Cl)cc1)N(CC)c1ccccn1 (stereo not given)
FALSE

Give the logged outcome of this assay for the following compound: COc1ccc(C(=O)c2c(C(=O)O)ccc3ccccc23)cc1
FALSE

Give the logged outcome of this assay for the following compound: Cc1ccc2c(c1)-c1c3c(nn1C)-c1ccccc1SC3O2 (stereo not given)
FALSE

Give the logged outcome of this assay for the following compound: N#CCCC1C(C#N)C2CC1C1C3C=CC(C3)C21 (stereo not given)
FALSE

Give the logged outcome of this assay for the following compound: CNNC1=NS(=O)(=O)c2cc(C(=O)OC)c(Cl)cc2S1
FALSE

Give the logged outcome of this assay for the following compound: CC(C)(C)CC(C(=O)O)[Si](C)(C)C (stereo not given)
FALSE

Give the logged outcome of this assay for the following compound: CC(=O)NNc1nc(C)c(C(/C=C/c2ccc([N+](=O)[O-])cc2)=N/NC(N)=O)s1
FALSE

Give the logged outcome of this assay for the following compound: Clc1ccc(C(=C=C(c2ccccc2)c2ccccc2)c2ccc(Cl)cc2)cc1
FALSE

Give the logged outcome of this assay for the following compound: CC(=O)Oc1c(C(C)C)cccc1C(C)(C)C
FALSE

Give the logged outcome of this assay for the following compound: CC(C)C1CC(C(C)C)C(O)C(C(C)C)C1 (stereo not given)
FALSE

Give the logged outcome of this assay for the following compound: Cc1cc2nc(/N=C/c3nc(O)c(C)[nH]3)[nH]c2cc1C
FALSE

Give the logged outcome of this assay for the following compound: NCCCOCCO
FALSE

Give the logged outcome of this assay for the following compound: C1CCC(N(CCN(C2CCCCC2)C2CCCCC2)C2CCCCC2)CC1
FALSE

Give the logged outcome of this assay for the following compound: CCC(CO)(C(=O)O)c1ccccc1 (stereo not given)
FALSE

Give the logged outcome of this assay for the following compound: CC(C)c1nnc(NC(=O)CSC(=S)N2CCOCC2)s1
FALSE

Give the logged outcome of this assay for the following compound: Cc1nc(=S)c2cnn(-c3ccccc3)c2[nH]1
FALSE

Give the logged outcome of this assay for the following compound: CCOc1ccccc1/C=C/C(=O)O
FALSE

Give the logged outcome of this assay for the following compound: C1=C2CCc3ccc(o3)CCC(=C1)O2
FALSE

Give the logged outcome of this assay for the following compound: O=C(O)CCCC#CCCCC(=O)O
FALSE

Give the logged outcome of this assay for the following compound: Nc1nc(N)c(N=Nc2ccc([N+](=O)[O-])cc2)c(=O)[nH]1
FALSE

Give the logged outcome of this assay for the following compound: CCCc1cc2c3c(c(=O)oc2cc1O)CCCC3
TRUE

Give the logged outcome of this assay for the following compound: CC(C)/C=N\N1C(N)=C(C#N)C(C#N)(C#N)C1C(C)C (stereo not given)
FALSE

Give the logged outcome of this assay for the following compound: COC(=O)C1(C)CCCC2(C)C3CCC(C(C)C)CC3CCC12 (stereo not given)
FALSE

Give the logged outcome of this assay for the following compound: C=CCCCCCCCCO
FALSE

Give the logged outcome of this assay for the following compound: O=C(OCC1OC(Br)CC(OC(=O)c2ccc([N+](=O)[O-])cc2)C1OC(=O)c1ccc([N+](=O)[O-])cc1)c1ccc([N+](=O)[O-])cc1 (stereo not given)
FALSE

Give the logged outcome of this assay for the following compound: O=c1cc2n(c(=O)n1Cc1ccccc1)CCC2
FALSE

Give the logged outcome of this assay for the following compound: CC(CNC(=O)C12CC3CC(CC(C3)C1)C2)NC(=O)C12CC3CC(CC(C3)C1)C2 (stereo not given)
FALSE

Give the logged outcome of this assay for the following compound: Cc1ccc(S(=O)(=O)Nc2ccc(C(=O)Cl)cc2)cc1
FALSE

Give the logged outcome of this assay for the following compound: CN(C)c1ccc(N=Nc2ccc(C(C)(C)C)cc2)cc1
FALSE

Give the logged outcome of this assay for the following compound: CC(C)N1CCN(c2ccncc2S(=O)(=O)N2CCCCC2)CC1
FALSE

Give the logged outcome of this assay for the following compound: O=c1nc(NO)cnn1C1OC(CO)C(O)C1O (stereo not given)
FALSE

Give the logged outcome of this assay for the following compound: COC(=O)C1CCC(=O)N1C(c1ccc(OC)cc1)c1ccc2c(c1)OCO2 (stereo not given)
FALSE

Give the logged outcome of this assay for the following compound: O=C(NC1(C(=O)O)CCCC1)c1ccccc1
FALSE

Give the logged outcome of this assay for the following compound: CCCC(=O)Nc1cn(COC)c(C(=O)N2C[C@@H]3C[C@]34C2=CC(=O)c2[nH]cc(C)c24)n1
FALSE

Give the logged outcome of this assay for the following compound: CC(C)C1OC2OCCCC2C(C(C)C)O1 (stereo not given)
FALSE

Give the logged outcome of this assay for the following compound: O=C1C2=Cc3ccccc3CCN2c2ccc([N+](=O)[O-])cc21
FALSE
